Numbers sourced from patent US6960574B2.

Test system: receptor labeled by the radioiodinated analogue of 1 (4, [125I]-YLFQPQRF-NH2); neuropeptide FF receptor
Test: Competitive radioligand binding against 4 ([125I]Y8F-amide)
Conditions: mixture-based positional scanning; difference from averaged radioligand displacement of whole library (0); about 80 a.u. = 10-fold change in Ki
Peptide text beside a SMILES is read from it. * marks the point of attachment. Dansyl = CN(C)c1cccc2c(S(=O)(=O)*)cccc12
Quantity: Relative Binding Index (RBI) (a.u.)

Recorded results for 6 compounds are shown here.
INSERT INTO results (compound, quantity, reported_result) VALUES
  ('CN(C)c1cccc2c(S(=O)(=O)N[C@@H](CCCCN)C(=O)N[C@@H](Cc3ccc(O)cc3)C(=O)N[C@@H](CCCNC(=N)N)C(N)=O)cccc12 [Dansyl-KYR-amide] (Dansyl-Lys-Tyr-Arg-NH2)', 'Relative Binding Index (RBI)', 23),
  ('C[C@H](NC(=O)[C@H](Cc1ccccc1)NS(=O)(=O)c1cccc2c(N(C)C)cccc12)C(=O)N[C@@H](CCCNC(=N)N)C(N)=O [Dansyl-FAR-amide] (Dansyl-Phe-Ala-Arg-NH2)', 'Relative Binding Index (RBI)', '−40'),
  ('CC[C@H](C)[C@H](NC(=O)[C@H](CC(=O)O)NS(=O)(=O)c1cccc2c(N(C)C)cccc12)C(=O)N[C@@H](CCCNC(=N)N)C(N)=O [Dansyl-DIR-amide] (Dansyl-Asp-Ile-Arg-NH2)', 'Relative Binding Index (RBI)', 1),
  ('CN(C)c1cccc2c(S(=O)(=O)N[C@@H](CCCCN)C(=O)N[C@@H](CCC(=O)O)C(=O)N[C@@H](CCCNC(=N)N)C(N)=O)cccc12 [Dansyl-KER-amide] (Dansyl-Lys-Glu-Arg-NH2)', 'Relative Binding Index (RBI)', 25),
  ('CC(C)C[C@H](NC(=O)[C@@H](NS(=O)(=O)c1cccc2c(N(C)C)cccc12)C(C)C)C(=O)N[C@@H](CCCNC(=N)N)C(N)=O [Dansyl-VLR-amide] (Dansyl-Val-Leu-Arg-NH2)', 'Relative Binding Index (RBI)', '−13'),
  ('CSCC[C@H](NC(=O)[C@H](Cc1cnc[nH]1)NS(=O)(=O)c1cccc2c(N(C)C)cccc12)C(=O)N[C@@H](CCCNC(=N)N)C(N)=O [Dansyl-HMR-amide] (Dansyl-His-Met-Arg-NH2)', 'Relative Binding Index (RBI)', 17);

[P] CN(C)c1cccc2c(S(=O)(=O)N[C@@H](Cc3cnc[nH]3)C(=O)N[C@@H](Cc3c[nH]c4ccccc34)C(=O)N[C@@H](CCCNC(=N)N)C(N)=O)cccc12 [Dansyl-HWR-amide] (Dansyl-His-Trp-Arg-NH2)
[Q] C[C@H](NC(=O)[C@H](CO)NS(=O)(=O)c1cccc2c(N(C)C)cccc12)C(=O)N[C@@H](CCCNC(=N)N)C(N)=O [Dansyl-SAR-amide] (Dansyl-Ser-Ala-Arg-NH2)
[R] CC(C)[C@H](NS(=O)(=O)c1cccc2c(N(C)C)cccc12)C(=O)N[C@@H](CC(N)=O)C(=O)N[C@@H](CCCNC(=N)N)C(N)=O [Dansyl-VNR-amide] (Dansyl-Val-Asn-Arg-NH2)
[S] CN(C)c1cccc2c(S(=O)(=O)N[C@@H](Cc3c[nH]c4ccccc34)C(=O)N[C@@H](CCCNC(=N)N)C(=O)N[C@@H](CCCNC(=N)N)C(N)=O)cccc12 [Dansyl-WRR-amide] (Dansyl-Trp-Arg-Arg-NH2)
# input Order the 4 compounds from highest to lowest Relative Binding Index (RBI). Please list each label once, in the requested order.
# output P, S, R, Q

* * *

Tested on: receptor labeled by the radioiodinated analogue of 1 (4, [125I]-YLFQPQRF-NH2); neuropeptide FF receptor
Assay: Competitive radioligand binding against 4 ([125I]Y8F-amide)
Settings: mixture-based positional scanning; difference from averaged radioligand displacement of whole library (0); about 80 a.u. = 10-fold change in Ki
Peptide text beside a SMILES is read from it. * marks the point of attachment. Dansyl = CN(C)c1cccc2c(S(=O)(=O)*)cccc12
Quantity: Relative Binding Index (RBI) (a.u.)

Recorded results for 5 molecules are shown here.
INSERT INTO results (molecule, reported_result) VALUES
  ('CN(C)c1cccc2c(S(=O)(=O)N[C@@H](Cc3ccccc3)C(=O)N[C@@H](CCC(N)=O)C(=O)N[C@@H](CCCNC(=N)N)C(N)=O)cccc12 [Dansyl-FQR-amide] (Dansyl-Phe-Gln-Arg-NH2)', 23),
  ('CC(C)C[C@H](NC(=O)[C@H](CCC(=O)O)NS(=O)(=O)c1cccc2c(N(C)C)cccc12)C(=O)N[C@@H](CCCNC(=N)N)C(N)=O [Dansyl-ELR-amide] (Dansyl-Glu-Leu-Arg-NH2)', 8),
  ('CSCC[C@H](NS(=O)(=O)c1cccc2c(N(C)C)cccc12)C(=O)N1CCC[C@H]1C(=O)N[C@@H](CCCNC(=N)N)C(N)=O [Dansyl-MPR-amide] (Dansyl-Met-Pro-Arg-NH2)', '−41'),
  ('CC[C@H](C)[C@H](NC(=O)[C@H](Cc1c[nH]cn1)NS(=O)(=O)c1cccc2c(N(C)C)cccc12)C(=O)N[C@@H](CCCNC(=N)N)C(N)=O [Dansyl-HIR-amide] (Dansyl-His-Ile-Arg-NH2)', 23),
  ('CN(C)c1cccc2c(S(=O)(=O)N[C@@H](CCCCN)C(=O)N[C@@H](CCCCN)C(=O)N[C@@H](CCCNC(=N)N)C(N)=O)cccc12 [Dansyl-KKR-amide] (Dansyl-Lys-Lys-Arg-NH2)', 22);

[A] CN(C)c1cccc2c(S(=O)(=O)N[C@@H](Cc3c[nH]cn3)C(=O)N[C@@H](Cc3ccc(O)cc3)C(=O)N[C@@H](CCCNC(=N)N)C(N)=O)cccc12 [Dansyl-HYR-amide] (Dansyl-His-Tyr-Arg-NH2)
[B] CC(C)C[C@H](NC(=O)[C@H](CCCNC(=N)N)NS(=O)(=O)c1cccc2c(N(C)C)cccc12)C(=O)N[C@@H](CCCNC(=N)N)C(N)=O [Dansyl-RLR-amide]
[C] CC(C)[C@H](NC(=O)[C@H](Cc1ccccc1)NS(=O)(=O)c1cccc2c(N(C)C)cccc12)C(=O)N[C@@H](CCCNC(=N)N)C(N)=O [Dansyl-FVR-amide] (Dansyl-Phe-Val-Arg-NH2)
[D] CC[C@H](C)[C@H](NC(=O)[C@H](CCC(=O)O)NS(=O)(=O)c1cccc2c(N(C)C)cccc12)C(=O)N[C@@H](CCCNC(=N)N)C(N)=O [Dansyl-EIR-amide] (Dansyl-Glu-Ile-Arg-NH2)
[E] CC[C@H](C)[C@H](NS(=O)(=O)c1cccc2c(N(C)C)cccc12)C(=O)N1CCC[C@H]1C(=O)N[C@@H](CCCNC(=N)N)C(N)=O [Dansyl-IPR-amide] (Dansyl-Ile-Pro-Arg-NH2)
# input Order the 5 molecules from highest to lowest Relative Binding Index (RBI). Please list each label once, in the requested order.
# output D, A, C, B, E
(D: 23 a.u., A: 16 a.u., C: 5 a.u., B: −2 a.u., E: −8 a.u.)

* * *

System: receptor labeled by the radioiodinated analogue of 1 (4, [125I]-YLFQPQRF-NH2); neuropeptide FF receptor
Assay: Competitive radioligand binding against 4 ([125I]Y8F-amide)
Details: mixture-based positional scanning; difference from averaged radioligand displacement of whole library (0); about 80 a.u. = 10-fold change in Ki
Peptide text beside a SMILES is read from it. * marks the point of attachment. Dansyl = CN(C)c1cccc2c(S(=O)(=O)*)cccc12
Quantity: Relative Binding Index (RBI) (a.u.)

INSERT INTO measurements (compound, quantity, reported_result) VALUES
  ('C[C@H](NS(=O)(=O)c1cccc2c(N(C)C)cccc12)C(=O)N[C@@H](CCC(=O)O)C(=O)N[C@@H](CCCNC(=N)N)C(N)=O [Dansyl-AER-amide] (Dansyl-Ala-Glu-Arg-NH2)', 'Relative Binding Index (RBI)', 12),
  ('CN(C)c1cccc2c(S(=O)(=O)N[C@@H](Cc3cnc[nH]3)C(=O)N3CCC[C@H]3C(=O)N[C@@H](CCCNC(=N)N)C(N)=O)cccc12 [Dansyl-HPR-amide] (Dansyl-His-Pro-Arg-NH2)', 'Relative Binding Index (RBI)', 20),
  ('C[C@@H](O)[C@H](NC(=O)[C@H](Cc1c[nH]c2ccccc12)NS(=O)(=O)c1cccc2c(N(C)C)cccc12)C(=O)N[C@@H](CCCNC(=N)N)C(N)=O [Dansyl-WTR-amide] (Dansyl-Trp-Thr-Arg-NH2)', 'Relative Binding Index (RBI)', 14),
  ('CSCC[C@H](NS(=O)(=O)c1cccc2c(N(C)C)cccc12)C(=O)N[C@@H](CC(C)C)C(=O)N[C@@H](CCCNC(=N)N)C(N)=O [Dansyl-MLR-amide] (Dansyl-Met-Leu-Arg-NH2)', 'Relative Binding Index (RBI)', '−52'),
  ('CN(C)c1cccc2c(S(=O)(=O)N3CCC[C@H]3C(=O)NCC(=O)N[C@@H](CCCNC(=N)N)C(N)=O)cccc12 [Dansyl-PGR-amide] (Dansyl-Pro-Gly-Arg-NH2)', 'Relative Binding Index (RBI)', '−43'),
  ('CN(C)c1cccc2c(S(=O)(=O)N[C@@H](CO)C(=O)N[C@@H](CCC(N)=O)C(=O)N[C@@H](CCCNC(=N)N)C(N)=O)cccc12 [Dansyl-SQR-amide] (Dansyl-Ser-Gln-Arg-NH2)', 'Relative Binding Index (RBI)', 30),
  ('CN(C)c1cccc2c(S(=O)(=O)N[C@@H](Cc3ccccc3)C(=O)N[C@@H](Cc3c[nH]c4ccccc34)C(=O)N[C@@H](CCCNC(=N)N)C(N)=O)cccc12 [Dansyl-FWR-amide] (Dansyl-Phe-Trp-Arg-NH2)', 'Relative Binding Index (RBI)', 18),
  ('CN(C)c1cccc2c(S(=O)(=O)N3CCC[C@H]3C(=O)N[C@@H](CC(=O)O)C(=O)N[C@@H](CCCNC(=N)N)C(N)=O)cccc12 [Dansyl-PDR-amide] (Dansyl-Pro-Asp-Arg-NH2)', 'Relative Binding Index (RBI)', '−66');

[P] CC(C)[C@H](NS(=O)(=O)c1cccc2c(N(C)C)cccc12)C(=O)N[C@H](C(=O)N[C@@H](CCCNC(=N)N)C(N)=O)[C@@H](C)O [Dansyl-VTR-amide] (Dansyl-Val-Thr-Arg-NH2)
[Q] CN(C)c1cccc2c(S(=O)(=O)N[C@@H](CCC(=O)O)C(=O)N[C@@H](Cc3ccc(O)cc3)C(=O)N[C@@H](CCCNC(=N)N)C(N)=O)cccc12 [Dansyl-EYR-amide] (Dansyl-Glu-Tyr-Arg-NH2)
[R] C[C@@H](O)[C@H](NC(=O)[C@H](CCCCN)NS(=O)(=O)c1cccc2c(N(C)C)cccc12)C(=O)N[C@@H](CCCNC(=N)N)C(N)=O [Dansyl-KTR-amide] (Dansyl-Lys-Thr-Arg-NH2)
# input Order the 3 compounds from highest to lowest Relative Binding Index (RBI). Please list each label once, in the requested order.
# output R, Q, P
(R: 30 a.u., Q: 15 a.u., P: 1 a.u.)

[P] C[C@H](NS(=O)(=O)c1cccc2c(N(C)C)cccc12)C(=O)N[C@H](C(=O)N[C@@H](CCCNC(=N)N)C(N)=O)[C@@H](C)O [Dansyl-ATR-amide] (Dansyl-Ala-Thr-Arg-NH2)
[Q] C[C@H](NC(=O)[C@H](CCCCN)NS(=O)(=O)c1cccc2c(N(C)C)cccc12)C(=O)N[C@@H](CCCNC(=N)N)C(N)=O [Dansyl-KAR-amide] (Dansyl-Lys-Ala-Arg-NH2)
# input I'm curious whether P or Q has the smaller Relative Binding Index (RBI) number. Which is it? Give the label under which the chosen entry appears.
# output Q
